Kindly find below IC50 information for Beta-secretase 1 (Homo sapiens) taken from the literature.
Checkbox rule: IC50 lower than 100 nM = criterion met; IC50 not lower than 100 nM = criterion not met.

compound	testedTarget	category
C#CCOc1cnc(C(=O)Nc2ccc(F)c([C@@]3(C)N=C(N)S[C@@]4(CF)C[C@H]43)c2)cn1	Beta-secretase 1 (Homo sapiens)	criterion met
COc1cc2cc(n1)NCCCCc1cccc(c1)C[C@@H]([C@H](O)CNCc1cccc(C(C)C)c1)NC2=O	Beta-secretase 1 (Homo sapiens)	criterion met
CC(C)c1cccc(CNC[C@@H](O)[C@@H]2C[C@H](C)CCCCCCCCC(=O)N(C)CC(=O)N2)c1	Beta-secretase 1 (Homo sapiens)	criterion not met
CC(=O)COc1cc2cc(c1)C(=O)N[C@H]([C@H](O)CNC1(c3cc(C(C)(C)C)ccn3)CC1)Cc1cccc(c1)CCCCO2	Beta-secretase 1 (Homo sapiens)	criterion met
COCc1cc2cc(n1)NCCCCOCC[C@@H](C)C[C@@H]([C@H](O)CNC1(c3cccc(C(C)(C)C)c3)CC1)NC2=O	Beta-secretase 1 (Homo sapiens)	criterion met
O=C1NC(Cc2ccccc2)C(=O)C1SCc1ccco1 (configuration not stated)	Beta-secretase 1 (Homo sapiens)	criterion not met
